Molecular target: Adenosine receptors; A1 & A3 (Homo sapiens) (UniProt P30542+P0DMS8)
Sequence (P30542 whole entry): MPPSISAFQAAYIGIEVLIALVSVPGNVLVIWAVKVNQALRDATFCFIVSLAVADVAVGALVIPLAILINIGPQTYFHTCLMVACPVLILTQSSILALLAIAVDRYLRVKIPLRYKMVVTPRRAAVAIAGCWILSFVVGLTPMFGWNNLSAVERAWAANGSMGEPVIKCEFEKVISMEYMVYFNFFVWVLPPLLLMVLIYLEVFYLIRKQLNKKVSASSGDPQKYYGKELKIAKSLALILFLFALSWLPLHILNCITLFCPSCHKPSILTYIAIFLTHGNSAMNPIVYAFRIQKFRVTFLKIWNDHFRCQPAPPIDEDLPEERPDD
Experiment: Selectivity of Ki for human recombinant adenosine A3 receptor to Ki for human recombinant adenosine A1 receptor
# Lookup of reported Ratio Ki keyed by entry
// print number alone

Task: So what does the record say about Ratio Ki for O[C@@H]1[C@H](O)[C@@H](CSc2ccccc2F)O[C@H]1n1cnc2c(NC3CCOC3)ncnc21 (stereo partly drawn) ?
Result: 3

Task: // same read-out, input: `C[C@@]1(O)[C@H](O)[C@@H](CSc2ccccc2F)O[C@H]1n1cnc2c(NC3CCCC3)ncnc21`
Result: 0.9

Task: // same read-out, input: `O[C@@H]1[C@H](O)[C@@H](CCl)O[C@H]1n1cnc2c(NC3CCCC3)nc(Cl)nc21`
Result: 267

Task: // same read-out, input: C[C@@]1(O)[C@H](O)[C@@H](CO)O[C@H]1n1cnc2c(NC3CC4CCC3C4)nc(Cl)nc21 (mixture of isomers)
Result: 645

Task: // same read-out, input: `C[C@@]1(O)[C@H](O)[C@@H](CCl)O[C@H]1n1cnc2c(NC3CCCC3)ncnc21`
Result: 237

Task: // same read-out, input: C[C@@]1(O)[C@H](O)[C@@H](CCl)O[C@H]1n1cnc2c(NC3CC4CCC3C4)ncnc21 (mixture of isomers)
Result: 1270

Task: // same read-out, input: `C[C@@]1(O)[C@H](O)[C@@H](CCl)O[C@H]1n1cnc2c(NC3CCCC3)nc(Cl)nc21`
Result: 237

Task: // same read-out, input: `O[C@@H]1[C@H](O)[C@@H](CCl)O[C@H]1n1cnc2c(NC3CCCC3)ncnc21`
Result: 637

====

# Lookup of reported logP keyed by entry
Test: Lipophilicity log P of the compound
Assay type: physicochemical
Details: octanol/water
// print number alone

| COMPOUND | logP |
| --- | --- |
| O[C@@H]1[C@H](O)[C@@H](CCl)O[C@H]1n1cnc2c(NC3CC4CCC3C4)ncnc21 (mixture of isomers) | 1.04 |

Kindly consider the entry below.
Task: So what does the record say about logP for OC[C@H]1O[C@@H](n2cnc3c(NC4CC5CCC4C5)ncnc32)[C@H](O)[C@@H]1O (mixture of isomers) ?
Result: -0.14

====

Molecular target: UniProtKB P0DMS8
Sequence (P0DMS8 whole entry): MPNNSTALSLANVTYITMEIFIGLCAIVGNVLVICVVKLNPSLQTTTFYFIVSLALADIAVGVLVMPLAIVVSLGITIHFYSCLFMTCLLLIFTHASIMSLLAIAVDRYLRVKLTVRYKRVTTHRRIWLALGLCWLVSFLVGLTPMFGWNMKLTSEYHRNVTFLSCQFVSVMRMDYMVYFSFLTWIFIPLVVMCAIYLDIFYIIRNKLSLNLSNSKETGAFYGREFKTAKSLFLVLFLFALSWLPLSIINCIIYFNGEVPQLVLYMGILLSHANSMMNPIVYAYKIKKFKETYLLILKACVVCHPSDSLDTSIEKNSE
Assay: Displacement of [3H]HEMADO from human recombinant adenosine A3 receptor expressed in CHO cells
pKi: −log10 of the molar value.
Outcome label depends on pKi relative to 6: at/above gives Met, below gives Not met.

Previously resolved entries follow.
| COMPOUND | CATEGORY LABEL |
| --- | --- |
| C[C@@]1(O)[C@H](O)[C@@H](CSc2ccccc2F)O[C@H]1n1cnc2c(NC3CC4CCC3C4)ncnc21 (mixture of isomers) | Not met |
| O[C@@H]1[C@H](O)[C@@H](CSc2ccccc2F)O[C@H]1n1cnc2c(NC3CCCC3)ncnc21 | Met |
| C[C@@]1(O)[C@H](O)[C@@H](CCl)O[C@H]1n1cnc2c(NC3CCCC3)nc(Cl)nc21 | Not met |
| C[C@@]1(O)[C@H](O)[C@@H](CSc2ccccc2F)O[C@H]1n1cnc2c(NC3CC4CCC3C4)nc(Cl)nc21 (mixture of isomers) | Not met |
| O[C@@H]1[C@H](O)[C@@H](CCl)O[C@H]1n1cnc2c(NC3CCCC3)nc(Cl)nc21 | Met |
| O[C@@H]1[C@H](O)[C@@H](CCl)O[C@H]1n1cnc2c(NC3CCCC3)ncnc21 | Met |

Task: Decide: pKi of `O[C@@H]1[C@H](O)[C@@H](CSc2ccccc2F)O[C@H]1n1cnc2c(NC3CCCC3)nc(Cl)nc21` >= 6?
Result: Met

Task: // same read-out, input: C[C@@]1(O)[C@H](O)[C@@H](CO)O[C@H]1n1cnc2c(NC3CC4CCC3C4)nc(Cl)nc21 (mixture of isomers)
Result: Not met

Task: // same read-out, input: C[C@@]1(O)[C@H](O)[C@@H](CO)O[C@H]1n1cnc2c(NC3CC4CCC3C4)ncnc21 (mixture of isomers)
Result: Not met

Task: // same read-out, input: C[C@@]1(O)[C@H](O)[C@@H](CCl)O[C@H]1n1cnc2c(NC3CC4CCC3C4)ncnc21 (mixture of isomers)
Result: Not met

====

Molecular target: Adenosine receptor A2b (Homo sapiens)
Sequence (P29275 whole entry): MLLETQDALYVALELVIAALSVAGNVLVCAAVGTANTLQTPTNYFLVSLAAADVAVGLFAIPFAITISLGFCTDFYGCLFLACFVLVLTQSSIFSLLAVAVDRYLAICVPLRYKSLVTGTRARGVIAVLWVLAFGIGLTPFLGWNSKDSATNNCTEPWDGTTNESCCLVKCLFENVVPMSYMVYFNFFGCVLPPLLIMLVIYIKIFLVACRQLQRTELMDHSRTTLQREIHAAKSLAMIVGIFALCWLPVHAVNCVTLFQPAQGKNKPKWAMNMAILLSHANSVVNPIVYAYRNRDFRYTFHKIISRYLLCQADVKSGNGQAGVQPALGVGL
Assay: Agonist activity at human adenosine A2B receptor expressed in CHO cells assessed as inhibition of NECA-stimulated adenylyl cyclase activity
REPORTED ENDPOINT: Ki

Study these solved cases before continuing.
| COMPOUND | OBS VALUE |
| --- | --- |
| OC[C@H]1O[C@@H](n2cnc3c(NC4CC5CCC4C5)ncnc32)[C@H](O)[C@@H]1O (mixture of isomers) | 4.93 µM |
| C[C@@]1(O)[C@H](O)[C@@H](CO)O[C@H]1n1cnc2c(NC3CC4CCC3C4)nc(Cl)nc21 (mixture of isomers) | > 10 µM |
| C[C@@]1(O)[C@H](O)[C@@H](CSc2ccccc2F)O[C@H]1n1cnc2c(NC3CCCC3)nc(Cl)nc21 | > 10 µM |
| O[C@@H]1[C@H](O)[C@@H](CCl)O[C@H]1n1cnc2c(NC3CCCC3)ncnc21 | 3.21 µM |
| C[C@@]1(O)[C@H](O)[C@@H](CCl)O[C@H]1n1cnc2c(NC3CC4CCC3C4)nc(Cl)nc21 (mixture of isomers) | > 10 µM |
| C[C@@]1(O)[C@H](O)[C@@H](CSc2ccccc2F)O[C@H]1n1cnc2c(NC3CC4CCC3C4)nc(Cl)nc21 (mixture of isomers) | > 10 µM |

Task: So what does the record say about Ki for C[C@@]1(O)[C@H](O)[C@@H](CO)O[C@H]1n1cnc2c(NC3CC4CCC3C4)ncnc21 (mixture of isomers) ?
Result: > 10 µM

====

Species on record: Homo sapiens
Experiment: Selectivity of Ki for human recombinant adenosine A2A receptor to Ki for human recombinant adenosine A1 receptor
# Lookup of reported Ratio Ki keyed by entry
// print number alone

Task: So what does the record say about Ratio Ki for `O[C@@H]1[C@H](O)[C@@H](CSc2ccccc2F)O[C@H]1n1cnc2c(NC3CCCC3)nc(Cl)nc21` ?
Result: 8

====

Target: Adenosine receptor A2a (Homo sapiens, UniProt P29274)
Sequence (P29274 whole entry): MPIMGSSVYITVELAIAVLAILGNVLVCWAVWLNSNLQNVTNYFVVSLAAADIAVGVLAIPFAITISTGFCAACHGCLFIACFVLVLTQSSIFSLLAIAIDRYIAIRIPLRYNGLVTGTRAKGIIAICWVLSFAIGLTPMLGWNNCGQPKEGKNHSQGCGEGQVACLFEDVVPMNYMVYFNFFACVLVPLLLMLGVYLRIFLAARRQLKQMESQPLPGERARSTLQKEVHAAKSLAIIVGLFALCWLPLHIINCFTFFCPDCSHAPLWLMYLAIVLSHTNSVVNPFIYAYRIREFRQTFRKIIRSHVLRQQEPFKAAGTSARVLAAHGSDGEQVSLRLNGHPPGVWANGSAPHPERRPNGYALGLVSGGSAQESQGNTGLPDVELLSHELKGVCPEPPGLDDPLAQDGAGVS
Experiment: Displacement of [3H]NECA from human recombinant adenosine A2A receptor expressed in CHO cells
REPORTED ENDPOINT: Ki

Study these solved cases before continuing.
| COMPOUND | OBS VALUE |
| --- | --- |
| O[C@@H]1[C@H](O)[C@@H](CSc2ccccc2F)O[C@H]1n1cnc2c(NC3CCCC3)nc(Cl)nc21 | 2190 nM |
| C[C@@]1(O)[C@H](O)[C@@H](CSc2ccccc2F)O[C@H]1n1cnc2c(NC3CC4CCC3C4)ncnc21 (mixture of isomers) | > 100000 nM |
| O[C@@H]1[C@H](O)[C@@H](CCl)O[C@H]1n1cnc2c(NC3CC4CCC3C4)ncnc21 (mixture of isomers) | 1340 nM |
| C[C@@]1(O)[C@H](O)[C@@H](CSc2ccccc2F)O[C@H]1n1cnc2c(NC3CCCC3)ncnc21 | > 100000 nM |

Kindly consider the entry below.
Task: So what does the record say about Ki for `C[C@@]1(O)[C@H](O)[C@@H](CSc2ccccc2F)O[C@H]1n1cnc2c(NC3CCCC3)nc(Cl)nc21` ?
Result: > 100000 nM

====

Target: UniProtKB P30542
Test: Displacement of [3H]CCPA from human recombinant adenosine A1 receptor expressed in CHO cells
# Lookup of reported Ki keyed by entry
Answer with a number only, understood to be in nM.

Study these solved cases before continuing.
| COMPOUND | ASSAY TARGET | OBS VALUE |
| --- | --- | --- |
| OC[C@H]1O[C@@H](n2cnc3c(NC4CC5CCC4C5)nc(Cl)nc32)[C@H](O)[C@@H]1O (mixture of isomers) | UniProtKB P30542 | 0.71 |
| O[C@@H]1[C@H](O)[C@@H](CCl)O[C@H]1n1cnc2c(NC3CCCC3)ncnc21 | UniProtKB P30542 | 0.59 |

Task: So what does the record say about Ki for `C[C@@]1(O)[C@H](O)[C@@H](CCl)O[C@H]1n1cnc2c(NC3CCCC3)ncnc21` ?
Result: 28.4
